Values from ChEMBL document CHEMBL6134793

Form field: MIC (one value per entry).
- Test system: Campylobacter coli
- run_description: Antimicrobial activity against Campylobacter coli ATCC 33559 assessed as growth inhibition by microdilution assay
- Type: functional
A bare number is not enough; add the unit after it.

Sample answers from the record:
[
  {
    "smiles_str": "CC[C@@H](NC(=O)[C@@H](O)[C@@H](C)CC)C(=O)N[C@@H](CC(C)C)C(=O)N[C@H](CCCN)C(=O)N[C@H](C(=O)N[C@H](C(=O)N[C@H](C(=O)N[C@H](CCCCN)C(=O)N[C@H](C(=O)N[C@H](C(=O)N[C@@H](CCCCN)C(=O)N[C@H](Cc1ccc(O)cc1)C(=O)N[C@@H](CC(C)C)C(=O)N[C@H](CO)C(C)C)C(C)C)C(C)C)C(C)C)C(C)C)C(C)C",
    "system_under_test": "Campylobacter coli",
    "MIC": "16 µg/mL"
  },
  {
    "smiles_str": "CC[C@H](NC(=O)[C@@H](O)[C@@H](C)CC)C(=O)N[C@@H](CC(C)C)C(=O)N[C@H](CCCN)C(=O)N[C@H](C(=O)N[C@H](C(=O)N[C@H](C(=O)N[C@H](CCCCN)C(=O)N[C@H](C(=O)N[C@H](C(=O)N[C@@H](CCCCN)C(=O)N[C@H](Cc1ccc(O)cc1)C(=O)N[C@@H](CC(C)C)C(=O)N[C@H](CO)C(C)C)C(C)C)C(C)C)C(C)C)[C@@H](C)CC)[C@@H](C)CC",
    "system_under_test": "Campylobacter coli",
    "MIC": "4 µg/mL"
  }
]

Record summary for C/C=C(/NC(=O)[C@@H](O)[C@@H](C)CC)C(=O)N[C@@H](CC(C)C)C(=O)N[C@H](CCCN)C(=O)N[C@H](C(=O)N[C@H](C(=O)N[C@H](C(=O)N[C@H](CCCCN)C(=O)N[C@H](C(=O)N[C@H](C(=O)N[C@@H](CCCCN)C(=O)N[C@H](Cc1ccc(O)cc1)C(=O)N[C@@H](CC(C)C)C(=O)N[C@H](CO)C(C)C)C(C)C)C(C)C)C(C)C)[C@@H](C)CC)[C@@H](C)CC : reported MIC = 8 µg/mL

###

- run_description: Hemolytic activity in human erythrocytes at 256 ug/ml measured after 1 hr by absorbance based assay relative to control
- Type: toxicity, cell-based, Erythrocyte
- test_parameters: at 256 µg/mL, read-out: Activity
Mark true (1) only when hemolysis at 1 h, 256 ug/ml stays strictly below 30%. Values equal to the cut-off are false (0).

Here are 4 compounds together with their reported answers.
[
  {
    "smiles_str": "C/C=C(/NC(=O)[C@@H](O)[C@@H](C)CC)C(=O)N[C@@H](CC(C)C)C(=O)N[C@H](CCCN)C(=O)N[C@H](C(=O)N[C@H](C(=O)N[C@H](C(=O)N[C@H](CCCCN)C(=O)N[C@H](C(=O)N[C@H](C(=O)N[C@@H](CCCCN)C(=O)N[C@H](Cc1ccc(O)cc1)C(=O)N[C@@H](CC(C)C)C(=O)N[C@H](CO)C(C)C)C(C)C)[C@@H](C)CC)C(C)C)[C@@H](C)CC)[C@@H](C)CC",
    "class_assignment": "false (0)"
  },
  {
    "smiles_str": "CC[C@H](C)[C@H](O)C(=O)N[C@H](C(=O)N[C@@H](CC(C)C)C(=O)N[C@H](CCCN)C(=O)N[C@H](C(=O)N[C@H](C(=O)N[C@H](C(=O)N[C@H](CCCCN)C(=O)N[C@H](C(=O)N[C@H](C(=O)N[C@@H](CCCCN)C(=O)N[C@H](Cc1ccc(O)cc1)C(=O)N[C@@H](CC(C)C)C(=O)N[C@H](CO)C(C)C)C(C)C)C(C)C)C(C)C)[C@@H](C)CC)[C@@H](C)CC)[C@@H](C)O",
    "class_assignment": "true (1)"
  },
  {
    "smiles_str": "CC[C@H](C)[C@H](O)C(=O)N[C@H](C(=O)N[C@@H](CC(C)C)C(=O)N[C@H](CCCN)C(=O)N[C@H](C(=O)N[C@H](C(=O)N[C@H](C(=O)N[C@H](CCCCN)C(=O)N[C@H](C(=O)N[C@H](C(=O)N[C@@H](CCCCN)C(=O)N[C@H](Cc1ccc(O)cc1)C(=O)N[C@@H](CC(C)C)C(=O)N[C@H](CO)C(C)C)C(C)C)C(C)C)C(C)C)[C@@H](C)CC)[C@@H](C)CC)C(C)C",
    "class_assignment": "false (0)"
  },
  {
    "smiles_str": "CC[C@@H](NC(=O)[C@@H](O)[C@@H](C)CC)C(=O)N[C@@H](CC(C)C)C(=O)N[C@H](CCCN)C(=O)N[C@H](C(=O)N[C@H](C(=O)N[C@H](C(=O)N[C@H](CCCCN)C(=O)N[C@H](C(=O)N[C@H](C(=O)N[C@@H](CCCCN)C(=O)N[C@H](Cc1ccc(O)cc1)C(=O)N[C@@H](CC(C)C)C(=O)N[C@H](CO)C(C)C)C(C)C)C(C)C)C(C)C)C(C)C)C(C)C",
    "class_assignment": "true (1)"
  }
]

[Q] Please state whether hemolysis at 1 h, 256 ug/ml is below 30% for C/C=C(/NC(=O)[C@@H](O)[C@@H](C)CC)C(=O)N[C@@H](CC(C)C)C(=O)N[C@H](CCCN)C(=O)N[C@H](C(=O)N[C@H](C(=O)N[C@H](C(=O)N[C@H](CCCCN)C(=O)N[C@H](C(=O)N[C@H](C(=O)N[C@@H](CCCCN)C(=O)N[C@H](Cc1ccc(O)cc1)C(=O)N[C@@H](CC(C)C)C(=O)N[C@H](CO)C(C)C)C(C)C)C(C)C)C(C)C)[C@@H](C)CC)[C@@H](C)CC
[A] true (1)
